Origin of values: PubChem BioAssay

Recorded measurements of fold change, one per entry
- METHOD SUMMARY: sensitizers of A549 cells to miR-34 induction, primary screen, imaging, A549 dox-inducible miR-34, nuclei and caspase counts (AID 1347080)
- ASSAY CONTEXT: A549 miR-34 inducible, Hoechst nuclei count, 48 h; stronger effect = lower value

[
  {
    "COMPOUND": "COC1=CC(=O)OC(/C=C/c2ccccc2)C1 (configuration not stated)",
    "fold change": 0.833
  },
  {
    "COMPOUND": "C=C1N[C@@H](Cc2ccc3[nH]cc(CCN(C)C)c3c2)CO1",
    "fold change": 0.795
  },
  {
    "COMPOUND": "CCCN(CCC)CCc1ccc(O)c(O)c1",
    "fold change": 0.99
  },
  {
    "COMPOUND": "C[C@]12CCC3C4CCC(=O)C=C4CCC3C1CCC2O (some centres not stated)",
    "fold change": 0.894
  },
  {
    "COMPOUND": "C[C@]12CCC(O)CC1=CCC1C2CC[C@@]2(C)C1CC[C@]2(C)O (some centres not stated)",
    "fold change": 0.929
  },
  {
    "COMPOUND": "CCNc1nc(Cl)nc(NC(C)C)n1",
    "fold change": 0.888
  },
  {
    "COMPOUND": "CN=C1CN(O)C(c2ccccc2)=c2cc(Cl)ccc2=N1",
    "fold change": 0.896
  },
  {
    "COMPOUND": "COC[C@H]1OC(=O)c2coc3c2[C@@]1(C)C1=C(C3=O)C2CCC(=O)[C@@]2(C)C[C@H]1OC(C)=O (some centres not stated)",
    "fold change": 1.01
  },
  {
    "COMPOUND": "CC(C)(O)C1C2OC(=O)C1[C@]1(O)CC3O[C@]34C(=O)OC2[C@]14C (some centres not stated) (tested in a mixture with another compound)",
    "fold change": 0.954
  },
  {
    "COMPOUND": "COc1cc2c(cc1OC)[C@@]13CCN4CC5=CCOC6CC(=O)N2C1[C@H]6[C@H]5C[C@H]43 (some centres not stated)",
    "fold change": 0.942
  },
  {
    "COMPOUND": "CN1C(=O)CN=C(c2ccccc2)c2cc([N+](=O)[O-])ccc21",
    "fold change": 0.947
  },
  {
    "COMPOUND": "C[C@@H](N)[C@@H](O)c1ccccc1",
    "fold change": 0.851
  },
  {
    "COMPOUND": "CCCC[N+]1(C)[C@@H]2CC(OC(=O)[C@H](CO)c3ccccc3)C[C@H]1[C@@H]1O[C@@H]12 (some centres not stated)",
    "fold change": 0.89
  },
  {
    "COMPOUND": "O=C(O)CCCO",
    "fold change": 0.926
  },
  {
    "COMPOUND": "C[C@]12CCC3c4ccc(OC(=O)N(CCCl)CCCl)cc4CCC3C1CC[C@@H]2O (some centres not stated)",
    "fold change": 1.19
  },
  {
    "COMPOUND": "ClC1C(Cl)C(Cl)C(Cl)C(Cl)C1Cl (configuration not stated)",
    "fold change": 0.871
  },
  {
    "COMPOUND": "CC1OC(O[C@H]2C[C@@H](O)[C@]3(CO)[C@H]4[C@H](O)C[C@]5(C)[C@@H](C6=CC(=O)OC6)CC[C@]5(O)[C@@H]4CC[C@]3(O)C2)C(O)C(O)C1O (some centres not stated)",
    "fold change": 0.802
  },
  {
    "COMPOUND": "NC(=O)OCCCc1ccccc1",
    "fold change": 0.887
  },
  {
    "COMPOUND": "N#CC(C#N)=Cc1ccc(O)cc1",
    "fold change": 1.08
  },
  {
    "COMPOUND": "C[C@@H]([C@H](O)c1ccccc1)N(C)C",
    "fold change": 0.94
  },
  {
    "COMPOUND": "Nc1ccc(CCN2CCN(c3cccc(C(F)(F)F)c3)CC2)cc1",
    "fold change": 0.992
  },
  {
    "COMPOUND": "Cc1nc(-c2ccccn2)nc(NCCc2ccccc2)c1Cl",
    "fold change": 0.975
  }
]

----------
- METHOD SUMMARY: sensitizers of A549 cells to miR-34 induction, primary screen, imaging, A549 dox-inducible miR-34, nuclei and caspase counts (AID 1347080)
- ASSAY CONTEXT: A549 miR-34 inducible, Hoechst nuclei count, 48 h; measured here: relative caspase fold change +Dox/-Dox
fold change vs 1: less than gives Yes; not less than gives No.

[
  {
    "COMPOUND": "C[C@@H]1CC[C@@]2(NC1)O[C@H]1C[C@H]3[C@@H]4CC=C5C[C@@H](O)CC[C@]5(C)[C@H]4CC[C@]3(C)[C@H]1[C@@H]2C",
    "ASSIGNED CATEGORY": "No"
  },
  {
    "COMPOUND": "NC1C[C@H]1c1ccccc1 (some centres undefined)",
    "ASSIGNED CATEGORY": "No"
  },
  {
    "COMPOUND": "CN[C@@H]1C[C@H]2O[C@@](C)([C@@H]1OC)n1c3ccccc3c3c4c(c5c6ccccc6n2c5c31)C(=O)NC4",
    "ASSIGNED CATEGORY": "Yes"
  },
  {
    "COMPOUND": "O=c1[nH]c2ccc(Cl)cc2c(NC2CN3CCC2CC3)c1-c1nc2ccccc2[nH]1 (centres undefined)",
    "ASSIGNED CATEGORY": "No"
  },
  {
    "COMPOUND": "ClC1C(Cl)C(Cl)C(Cl)C(Cl)C1Cl (centres undefined)",
    "ASSIGNED CATEGORY": "No"
  },
  {
    "COMPOUND": "C=CCN=C=S",
    "ASSIGNED CATEGORY": "Yes"
  },
  {
    "COMPOUND": "CCCCC/C=C\\C/C=C\\C/C=C\\C/C=C\\CCCC(=O)NCc1ccoc1",
    "ASSIGNED CATEGORY": "No"
  },
  {
    "COMPOUND": "CCN(CC)c1ncnc2c1ncn2[C@@H]1O[C@H](COP(=O)(O)OP(=O)(O)C(Br)(Br)P(=O)(O)O)[C@@H](O)[C@H]1O",
    "ASSIGNED CATEGORY": "No"
  }
]

----------
- METHOD SUMMARY: MDA-MB-436 breast carcinoma cell growth inhibition, synergistic combos for chromothripsis tumors, BGB or cisplatin combos (AID 1671458);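 further: cells exposed for 96 hours; 0% = vehicle DMSO and 100% = killing by high DMSO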
- ASSAY CONTEXT: MDA-MB-436 breast carcinoma growth inhibition, drug combinations; measured here: cisplatin combination; at 5 µM; stronger effect = higher value
In this section, each of the compounds is paired with its reported inhibition.
READOUT TYPE: inhibition (%)

[
  {
    "COMPOUND": "Cc1c2ccncc2c(C)c2c1[nH]c1ccccc12",
    "OBSERVED MEASUREMENT": 24.1
  },
  {
    "COMPOUND": "O=P(O)(NCCCl)NCCCl",
    "OBSERVED MEASUREMENT": -15.6
  },
  {
    "COMPOUND": "Cn1c(CCCC(=O)O)nc2cc(N(CCCl)CCCl)ccc21",
    "OBSERVED MEASUREMENT": -8.45
  },
  {
    "COMPOUND": "CC1(C)C(C(=O)Nc2ccc(S(=O)(=O)c3ccc(NC(=O)C4C(C)(C)C4(C)C)cc3)cc2)C1(C)C",
    "OBSERVED MEASUREMENT": -26
  },
  {
    "COMPOUND": "CN(C)NC(=O)CCC(=O)O",
    "OBSERVED MEASUREMENT": -43.4
  },
  {
    "COMPOUND": "O=C1CCC[C@@H]2[C@H]3CCCN4CCC[C@@H](CN12)[C@@H]34",
    "OBSERVED MEASUREMENT": 1.01
  },
  {
    "COMPOUND": "Cn1c(COP(=O)(NCCBr)NCCBr)cnc1[N+](=O)[O-]",
    "OBSERVED MEASUREMENT": 7.72
  },
  {
    "COMPOUND": "COc1cc(C2c3cc4c(cc3C(O)C3COC(=O)C23)OCO4)cc(OC)c1OC (stereo not drawn)",
    "OBSERVED MEASUREMENT": 74.9
  }
]
